test: Toxicity liver stage against HepG2, at 10uM; assay type: cell-based; parameters: test concentration 10 uM, cell line HepG2-A16-CD81EGFP; conditions: human, HepG2-A16-CD81EGFP cells; read-out: INHIBITION
observed property: cytotoxicity at 10 µM (%)
Use % as the unit, but write only the number.

Please indicate cytotoxicity at 10 µM recorded for COc1ccc(NC(C)C(=O)N2CCCC2)cn1 (stereo unspecified)
-4.96

Specify cytotoxicity at 10 µM for c1cncc(C2COC3(CCN(CC4CCOCC4)CC3)C2)c1 (stereo unspecified) and stop.
-10.4

Report cytotoxicity at 10 µM for `CCOc1cccc(C(=O)Nc2ccncc2)c1`
8.59

Note cytotoxicity at 10 µM for the compound shown: `O=C1CCCCN1CSc1nnnn1-c1ccc(Cl)cc1`
-48.4

Fill in cytotoxicity at 10 µM for record `Cc1cc(Oc2ccccc2)nc(C2CCN(CCO)CC2)n1`
-1.99

Consider the compound Cc1nccn1-c1ccc(C(C)Nc2cnn(C)c(=O)c2Cl)cc1 (stereo unspecified) . State its measured cytotoxicity at 10 µM.
18.7

These entries and their values trace back to ChEMBL document CHEMBL4513216.
